molecular target: human MetAP2 enzyme (Homo sapiens, UniProt P50579); assay: MetAP2 enzyme assay, enzyme complexed with cobalt ions; details: MetAP2 Co pIC50, MetAP2 enzyme complexed with cobalt ions; Met-AMC substrate at Km
Sequence (P50579 whole entry): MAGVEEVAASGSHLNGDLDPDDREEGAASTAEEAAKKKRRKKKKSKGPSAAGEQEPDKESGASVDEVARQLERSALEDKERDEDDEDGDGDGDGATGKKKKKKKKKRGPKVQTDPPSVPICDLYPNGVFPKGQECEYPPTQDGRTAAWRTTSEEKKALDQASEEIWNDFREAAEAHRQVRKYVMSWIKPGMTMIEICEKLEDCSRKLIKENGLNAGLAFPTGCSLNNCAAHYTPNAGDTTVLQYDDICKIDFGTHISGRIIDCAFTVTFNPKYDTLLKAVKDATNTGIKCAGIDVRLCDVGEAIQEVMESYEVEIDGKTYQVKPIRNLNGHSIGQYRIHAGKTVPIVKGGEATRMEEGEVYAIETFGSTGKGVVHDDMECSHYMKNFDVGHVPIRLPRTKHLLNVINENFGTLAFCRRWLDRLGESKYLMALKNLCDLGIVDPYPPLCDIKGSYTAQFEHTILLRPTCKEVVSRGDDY
Measured property: IC50 (nM)

Would you please look over these solved cases?
N#Cc1ccc2ncc(-c3cc(C(F)(F)F)cc4[nH]ncc34)n2c1    200
FC(F)(F)c1cc(-c2cn[nH]c2)c2cn[nH]c2c1    100
Cc1nn(C)c(C(N)=O)c1-c1cc(C(F)(F)F)cc2[nH]ncc12    631

P: COc1nc(Cl)ccc1-c1cc(C(F)(F)F)cc2[nH]ncc12
Q: Cn1cc(C(=O)NCCO)cc(-c2cc(C(F)(F)F)cc3[nH]ncc23)c1=O
R: C[C@H](CO)Nc1ncc(-c2cc(C(F)(F)F)cc3[nH]ncc23)cn1
Qu. Ranking field: IC50; order: falling. Field: ranking. Enter the labels in the order requested.
Ans. Q, P, R

----------
target: human MetAP2 enzyme (Homo sapiens, UniProt P50579); test: MetAP2 enzyme assay, enzyme complexed with cobalt ions; conditions: MetAP2 Co pIC50, MetAP2 enzyme complexed with cobalt ions; Met-AMC substrate at Km
pIC50: −log10 of the molar value.
Measured property: pIC50

Below are worked cases with known answers.
FC(F)(F)c1cc(-c2cccc3c2OCO3)c2cn[nH]c2c1 [Example 27]    6.90
O=C(NCCO)c1c[nH]c(=O)c(-c2cc(C(F)(F)F)cc3[nH]ncc23)c1 [Example 299]    6.40
Cc1c(-c2cc(C(F)(F)F)cc3[nH]ncc23)ccc(=O)n1Cc1ccccn1 [Example 407]    7.10

a: OCc1ccc(-c2cc(C(F)(F)F)cc3[nH]ncc23)cc1 [Example 11]
b: Cc1nn(CC(=O)NCCO)c(C)c1-c1cc(C(F)(F)F)cc2[nH]ncc12 [Example 386]
c: Cc1cn(C)c(-c2cc(C(F)(F)F)cc3[nH]ncc23)n1 [Example 163]
d: FC(F)(F)c1cc(-c2cc[nH]n2)c2cn[nH]c2c1 [Example 13]
e: CN1CCN(C(=O)c2cc(-c3cc(C(F)(F)F)cc4[nH]ncc34)c[nH]c2=O)CC1 [Example 227]
Qu. Rank descending by pIC50. Give me the labels in the order the question wants.
Ans. a, b, e, d, c
(a: 7.50, b: 7.20, e: 6.90, d: 6.40, c: 6.10)

----------
molecular target: human MetAP2 enzyme (Homo sapiens, UniProt P50579); experiment: MetAP2 enzyme assay, enzyme complexed with cobalt ions; conditions: MetAP2 Co pIC50, MetAP2 enzyme complexed with cobalt ions; Met-AMC substrate at Km
Measured property: IC50 (nM)

C[C@H](O)CNc1ncc(-c2cc(C(F)(F)F)cc3[nH]ncc23)cn1    79.4

P: COc1ccc(-c2cc(C(F)(F)F)cc3[nH]ncc23)c(C)n1
Q: OCCc1cccc(-c2cc(C(F)(F)F)cc3[nH]ncc23)c1
Qu. Lower value of IC50 belongs to which: P or Q ? Pick one; state its label.
Ans. P
(P: 79.4 nM, Q: 158 nM)

----------
target: human MetAP2 enzyme (Homo sapiens, UniProt P50579); assay: MetAP2 enzyme assay, enzyme complexed with manganese ions; details: MetAP2 Mn pIC50, MetAP2 enzyme complexed with manganese ions; Met-AMC substrate at Km
Measured property: IC50 (nM)

A: CS(=O)(=O)NCc1ccc(-c2cc(C(F)(F)F)cc3[nH]ncc23)cc1
B: COc1nc(C(N)=O)ccc1-c1cc(C(F)(F)F)cc2[nH]ncc12
C: COc1cccnc1-c1cc(C(F)(F)F)cc2[nH]ncc12
D: FC(F)(F)c1cc(-c2csc(N3CCOCC3)n2)c2cn[nH]c2c1
E: FC(F)(F)c1cc(-c2c[nH]c3nccnc23)c2cn[nH]c2c1
Qu. Place the items in sequence of falling IC50. # output: labels, in the requested order
Ans. C, D, E, B, A
(C: 79.4 nM, D: 50.1 nM, E: 12.6 nM, B: 5.01 nM, A: 3.16 nM)

P: COc1ncc(-c2cc(C(F)(F)F)cc3[nH]ncc23)cc1C(=O)NCCO [Example 285]
Q: C[C@H](O)CNc1ncc(-c2cc(C(F)(F)F)cc3[nH]ncc23)cn1
Qu. Between P and Q , whose measured IC50 reads higher? Answer format: the label of the selected item.
Ans. Q

P: Cc1nn(CC(=O)NCCO)cc1-c1cc(C(F)(F)F)cc2[nH]ncc12
Q: O=c1[nH]c2cc(-c3cc(C(F)(F)F)cc4[nH]ncc34)cnc2[nH]1
Qu. Which of the two gives a bigger number for IC50: P or Q ? Lab note: record the label of whichever item you select.
Ans. P
